Hello, the source for this data is patent US10141017B2, in case you need it.

EXPERIMENT_NOTES: Solubility to fluorine-based solvent
MEASUREMENT_CONDITIONS: Novec 7300, 1% by mass, 25° C.
In this section, each of the compounds is paired with its reported Solubility to fluorine-based solvent.

- COMPOUND: "NCCOCC(F)(F)OC(F)(F)C(F)(F)OC(F)(F)C(F)(F)OC(F)(F)C(F)(F)C(F)(F)C(F)(F)F.O=S(=O)(O)C(F)(F)C(F)(F)C(F)(F)C(F)(F)F"
  Solubility to fluorine-based solvent: 1
- COMPOUND: "NCCC(F)(F)C(F)(F)C(F)(F)C(F)(F)C(F)(F)C(F)(F)C(F)(F)C(F)(F)F.O=C(O)C(F)(F)OC(F)(F)C(F)(F)OC(F)(F)C(F)(F)OC(F)(F)C(F)(F)C(F)(F)C(F)(F)F"
  Solubility to fluorine-based solvent: 1
- COMPOUND: "NCCC(F)(F)C(F)(F)C(F)(F)C(F)(F)C(F)(F)C(F)(F)C(F)(F)C(F)(F)F.O=S(=O)(O)C(F)(F)C(F)(F)C(F)(F)C(F)(F)F [compound 2, reference compound]"
  Solubility to fluorine-based solvent: 2
- COMPOUND: "NCCOCC(F)(F)OC(F)(F)C(F)(F)OC(F)(F)C(F)(F)OC(F)(F)C(F)(F)C(F)(F)C(F)(F)F.O=S(=O)(NS(=O)(=O)C(F)(F)C(F)(F)C(F)(F)C(F)(F)F)C(F)(F)C(F)(F)C(F)(F)C(F)(F)F"
  Solubility to fluorine-based solvent: 1
- COMPOUND: "NCCOCC(F)(F)OC(F)(F)C(F)(F)OC(F)(F)C(F)(F)OC(F)(F)C(F)(F)C(F)(F)C(F)(F)F.O=S(=O)(O)CCCOCC(F)(F)OC(F)(F)C(F)(F)OC(F)(F)C(F)(F)OC(F)(F)C(F)(F)C(F)(F)C(F)(F)F [Ex. 1, PFTEG amine-PFTEG sulfonic acid salt]"
  Solubility to fluorine-based solvent: 1
